Tested target: hPPARδ (Homo sapiens, UniProt Q03181)
Construct: corresponding to the DEF domains (structural elements of the promoter of the PPARs: D=hinge, EF=ligand fixation domain and AF2 fixation site); expressed in transfected cells; host or cells: COS-7 (monkey kidney fibroblasts)
Sequence (Q03181 211-439 limits assumed): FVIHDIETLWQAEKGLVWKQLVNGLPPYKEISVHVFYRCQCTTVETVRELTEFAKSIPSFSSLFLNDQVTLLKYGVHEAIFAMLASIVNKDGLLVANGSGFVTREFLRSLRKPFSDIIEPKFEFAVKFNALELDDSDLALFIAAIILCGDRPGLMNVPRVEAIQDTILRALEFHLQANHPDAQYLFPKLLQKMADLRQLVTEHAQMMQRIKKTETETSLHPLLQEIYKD
Test details: Gal4-hPPARδ chimera transactivation (luciferase) in COS-7 cells
Type: cell-based
Test parameters: relative to maximum activation obtained with GW501516; COS-7 cells, Gal4-hPPARδ, 24 hours; read-out: PPARδ TOP % (maximum activation)
Result type: Emax (%)
Respond with the bare value in %.

[Q] What Emax value was documented for this molecule, COc1nc(-c2ccccc2)ccc1CN(C)c1ccc(CCC(=O)O)cc1 ?
[A] 74.5

[Q] Try this molecule too: CCSc1nc(-c2ccccc2)ccc1CNc1ccc(CCC(=O)O)cc1
[A] 64.5

[Q] Try this molecule too: CCOc1nc(-c2ccccc2)ccc1CNc1ccc(CCC(=O)O)cc1
[A] 93.1

[Q] Try this molecule too: COc1nc(-c2ccccc2)ccc1CNc1ccc(OC(C)(C)C(=O)O)cc1
[A] 84.2

[Q] Try this molecule too: CC(Oc1ccc(NCc2ccc(-c3ccccc3)nc2OC(C)(C)C)cc1)C(=O)O (centres unmarked)
[A] 96.7

###

Tested target: hPPARδ (Homo sapiens, UniProt Q03181)
Construct: corresponding to the DEF domains (structural elements of the promoter of the PPARs: D=hinge, EF=ligand fixation domain and AF2 fixation site)
Test details: Gal4-hPPARδ chimera transactivation (luciferase) in COS-7 cells
Test parameters: COS-7 cells, Gal4-hPPARδ, luciferase, 24 hours; read-out: PPARδ EC50
pEC50: −log10 of the molar value.
Entry flag: satisfied if pEC50 reaches 6; not satisfied if it does not.

[Q] Is pEC50 at least 6? Consider COc1nc(-c2ccccc2)ccc1CNc1ccc(C(CC(=O)O)c2ccccc2)cc1 (stereo not drawn)
[A] not satisfied

[Q] Try this molecule too: CC(C)(C)Oc1nc(-c2ccccc2)ccc1COc1ccc(OC(C)(C)C(=O)O)cc1
[A] satisfied

[Q] Try this molecule too: COc1nc(-c2ccc(C(F)(F)F)cc2)ccc1CNc1ccc(SCC(=O)O)cc1
[A] satisfied

[Q] Try this molecule too: CC#CC(CC(=O)O)c1ccc(OCc2cc(-c3ccccc3)cnc2OC)cc1 (stereo not drawn)
[A] not satisfied

[Q] Try this molecule too: COc1ncc(-c2ccccc2)cc1CNc1ccc(CCC(=O)O)cc1
[A] not satisfied

[Q] Try this molecule too: COc1nc(-c2cccc(C(F)(F)F)c2)ccc1CNc1ccc(CCC(=O)O)cc1
[A] satisfied

[Q] Try this molecule too: COc1nc(-c2ccccc2)ccc1CNc1cccc(OC(C)(C)C(=O)O)c1
[A] not satisfied

[Q] Try this molecule too: COc1cc(CCC(=O)O)ccc1NCc1ccc(-c2ccccc2)nc1OC
[A] not satisfied

[Q] Try this molecule too: COc1nc(-c2ccccc2)ccc1CNc1cccc(OCC(=O)O)c1
[A] not satisfied

###

Tested target: hPPARδ (Homo sapiens, UniProt Q03181)
Construct: corresponding to the DEF domains (structural elements of the promoter of the PPARs: D=hinge, EF=ligand fixation domain and AF2 fixation site); expressed in transfected cells; host or cells: COS-7 (monkey kidney fibroblasts)
Test details: Gal4-hPPARδ chimera transactivation (luciferase) in COS-7 cells
Format: cell-based
Test parameters: relative to maximum activation obtained with GW501516; COS-7 cells, Gal4-hPPARδ, 24 hours; read-out: PPARδ TOP % (maximum activation)
Can you tell me Emax for the items I'm about to list?
Answer with the number, then the unit.

[Q] What Emax value was documented for this compound, CC#CC(CC(=O)O)c1ccc(OCc2ccc(-c3ccccc3)nc2OC)cc1 (centres unmarked) ?
[A] 9.86%

[Q] Try this compound too: COc1nc(-c2ccccc2)ccc1CNc1ccc(OCC(=O)O)cc1
[A] 115%

[Q] Try this compound too: CCCCCCOc1nc(-c2ccccc2)ccc1COc1ccc(OCC(=O)O)cc1
[A] 96.5%

[Q] Try this compound too: COc1nc(-c2cccc(C(F)(F)F)c2)ccc1CNc1ccc(CCC(=O)O)cc1
[A] 107%

[Q] Try this compound too: COc1nc(-c2ccc(C(F)(F)F)cc2)ccc1COc1ccc(OCC(=O)O)cc1
[A] 94.1%

[Q] Try this compound too: COc1ncc(-c2ccccc2)cc1CNc1ccc(SCC(=O)O)cc1
[A] 138%

[Q] Try this compound too: COc1ncc(-c2cccc(C(F)(F)F)c2)cc1CNc1ccc(CCC(=O)O)cc1
[A] 79.2%

[Q] Try this compound too: COc1nc(OC)c(-c2ccccc2)cc1CNc1ccc(CCC(=O)O)cc1
[A] 68.1%

###

Tested target: hPPARγ (Homo sapiens)
Construct: corresponding to the DEF domains (structural elements of the promoter of the PPARs: D=hinge, EF=ligand fixation domain and AF2 fixation site); expressed in transfected cells; host or cells: COS-7 (monkey kidney fibroblasts)
Sequence (P37231 238-503 limits assumed): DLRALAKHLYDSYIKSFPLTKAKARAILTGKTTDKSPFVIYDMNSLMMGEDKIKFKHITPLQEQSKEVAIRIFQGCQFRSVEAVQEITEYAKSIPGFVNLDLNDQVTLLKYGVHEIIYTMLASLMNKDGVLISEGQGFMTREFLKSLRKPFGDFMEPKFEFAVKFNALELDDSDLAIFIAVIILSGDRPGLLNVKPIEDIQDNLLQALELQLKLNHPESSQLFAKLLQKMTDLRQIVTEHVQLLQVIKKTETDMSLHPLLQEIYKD
Test details: Gal4-hPPARγ chimera transactivation (luciferase) in COS-7 cells
Type: cell-based
Test parameters: relative to maximum activation obtained with rosiglitazone, 24 hours, read-out: PPARγ TOP % (maximum activation)
Can you tell me Emax for the items I'm about to list?
Respond with the bare value in %.

[Q] What Emax value was documented for this molecule, CCCCCCOc1nc(-c2ccccc2)ccc1COc1ccc(OC(C)(C)C(=O)O)cc1 ?
[A] 75.6

[Q] Try this molecule too: COc1cc(CCC(=O)O)ccc1NCc1ccc(-c2ccccc2)nc1OC
[A] 72.2

[Q] Try this molecule too: COc1nc(-c2ccccc2)ccc1CNc1cc(C)c(OCC(=O)O)c(C)c1
[A] 38.8

[Q] Try this molecule too: COc1nc(-c2ccc(-c3ccccc3)cc2)ccc1CNc1ccc(CCC(=O)O)cc1
[A] 100

[Q] Try this molecule too: COc1nc(-c2ccccc2)ccc1CNc1ccc(SC(C)(C)C(=O)O)cc1
[A] 54.5

[Q] Try this molecule too: COc1ncc(-c2ccccc2)cc1CNc1ccc(CCC(=O)O)cc1
[A] 72.1

[Q] Try this molecule too: CCC(Nc1ccc(CCC(=O)O)cc1)c1ccc(-c2ccccc2)nc1OC (stereo not shown)
[A] 80.4

[Q] Try this molecule too: COc1nc(-c2ccccc2)ccc1COc1ccc(OCC(=O)O)cc1
[A] 39.1

[Q] Try this molecule too: COc1nc(-c2ccc(C(F)(F)F)cc2)ccc1COc1ccc(OCC(=O)O)cc1
[A] 65.7

[Q] Try this molecule too: O=C(O)COc1ccc(OCc2ccc(-c3ccccc3)nc2Sc2ccccc2)cc1
[A] 38.3

[Q] Try this molecule too: COc1nc(-c2ccccc2)ccc1CNc1ccc(OCC(=O)O)cc1
[A] 70.5

[Q] Try this molecule too: COc1nc(-c2ccc(C(F)(F)F)cc2)ccc1CNc1ccc(CCC(=O)O)cc1
[A] 123

[Q] Try this molecule too: COc1nc(-c2ccccc2)ccc1CN(C)c1ccc(CCC(=O)O)cc1
[A] 65

###

Tested target: hPPARδ (Homo sapiens)
Construct: corresponding to the DEF domains (structural elements of the promoter of the PPARs: D=hinge, EF=ligand fixation domain and AF2 fixation site); expressed in transfected cells; host or cells: COS-7 (monkey kidney fibroblasts)
Test details: Gal4-hPPARδ chimera transactivation (luciferase) in COS-7 cells
Type: cell-based
Test parameters: relative to maximum activation obtained with GW501516; COS-7 cells, Gal4-hPPARδ, 24 hours; read-out: PPARδ TOP % (maximum activation)
Result type: Emax (%)
Respond with the bare value in %.

[Q] What Emax value was documented for this molecule, COc1ncc(-c2ccc3ccccc3c2)cc1CNc1ccc(CCC(=O)O)cc1 ?
[A] 103

[Q] Try this molecule too: COc1nc(-c2ccccc2)ccc1CNc1ccc(C(C)CC(=O)O)cc1 (stereo not shown)
[A] 97.3

[Q] Try this molecule too: CCCCCCOc1nc(-c2ccccc2)ccc1COc1ccc(OC(C)(C)C(=O)O)cc1
[A] 99.6

[Q] Try this molecule too: COc1nc(-c2ccc(C(F)(F)F)cc2)ccc1CNc1ccc(CCC(=O)O)cc1
[A] 93.9

[Q] Try this molecule too: COc1cc(NCc2ccc(-c3ccccc3)nc2OC)ccc1CCC(=O)O
[A] 77.9

[Q] Try this molecule too: COc1cc(CCC(=O)O)ccc1NCc1ccc(-c2ccccc2)nc1OC
[A] 80.6

[Q] Try this molecule too: CC#CC(CC(=O)O)c1ccc(OCc2cc(-c3ccccc3)cnc2OC)cc1 (stereo not shown)
[A] 16.1

[Q] Try this molecule too: COc1ncc(-c2ccc(Cl)cc2)cc1CNc1ccc(CCC(=O)O)cc1
[A] 123

[Q] Try this molecule too: COc1nc(-c2ccc(C(F)(F)F)cc2)ccc1CNc1ccc(SCC(=O)O)cc1
[A] 85.4

[Q] Try this molecule too: COc1nc(-c2ccccc2)ccc1CNc1cccc(OC(C)(C)C(=O)O)c1
[A] 96.1

[Q] Try this molecule too: COc1nc(-c2ccccc2)ccc1CNc1ccc(SC(C(=O)O)c2ccccc2)cc1 (stereo not shown)
[A] 3.59

[Q] Try this molecule too: COc1nc(-c2ccccc2)ccc1CNc1ccc(C(CC(=O)O)c2ccccc2)cc1 (stereo not shown)
[A] 86.5

[Q] Try this molecule too: COc1nc(-c2ccccc2)ccc1CNc1cccc(OCC(=O)O)c1
[A] 103

[Q] Try this molecule too: O=C(O)COc1ccc(OCc2ccc(-c3ccccc3)nc2OC2CCCCC2)cc1
[A] 97.1

[Q] Try this molecule too: COc1nc(-c2ccc(C(F)(F)F)cc2)ccc1CNc1ccc(SC(C)(C)C(=O)O)cc1
[A] 102

[Q] Try this molecule too: COc1nc(-c2ccccc2)ccc1CNc1ccc(SC(F)(F)C(=O)O)cc1
[A] 72.9

[Q] Try this molecule too: COc1nc(-c2ccc(-c3ccccc3)cc2)ccc1CNc1ccc(CCC(=O)O)cc1
[A] 95.3

[Q] Try this molecule too: COc1nc(-c2ccccc2)c(-c2ccccc2)cc1CNc1ccc(SCC(=O)O)cc1
[A] 49.1

[Q] Try this molecule too: CC(C)(C)Oc1nc(-c2ccccc2)ccc1COc1ccc(OC(C)(C)C(=O)O)cc1
[A] 70.7
